Provenance of the data: patent US20180030149A1

Molecular target: T1, recombinant human ErbB3/Fc fusion protein (human, UniProt P21860 20-643)
T1 construct: Bought (R&D Systems, Cat. No. 348-RB); the NRG1-α1 assay names Cat. No. 4518-RB instead; also called rhErbB3-Fc; rhErbB3/Fc; not shown: Fc portion of the bought fusion protein
Assay: ECL competition; inhibition of NRG1-β1 binding to plate-coated rhErbB3/Fc
pIC50: −log10 of the molar value.
recorded metric: pIC50

- 12A07 (antibody, mouse IgG1, kappa, V domains shown, Murine IgG1/kappa, from hybridoma; also called anti-hErbB3 monoclonal antibody 12A07) VH: QVQLLQPGAELVRPGTSVKLSCKTSGYTFSSYWMHWVKQRPGQGLEWIGMIDPSDVYTNYNPKFKGKATLTVDTSSSTAYMQLSSLTSEDSAVYYCARNYSGDYWGQGTTLTVSS VL: DVLMTQIPLSLPVSLGDQASISCRSSQSIVHSNGNTYLEWYLQKPGQSPKLLIYKVSNRFSGVPDRFSGSGSGTDFTLKISRVEAEDLGVYYCFQGSYVPWTFGGGTKLEIKR: 9.63
- 04D01 (antibody, mouse IgG1, kappa, V domains shown, Murine IgG1/kappa, purified from hybridoma; also called anti-hErbB3 monoclonal antibody 04D01) VH: QVQLQQPGAELVRPGTSVKLSCKASGYTFTSHWLHWVKQRPGQGLEWIGVLDPSDFYSNYNQNFKGKATLTVDTSSSTAYMQLSSLTSEDSAVYYCARGLLSGDYAMDYWGQGTSVTVSS VL: DVLMTQIPLSLPVSLGDQASISCRSSQSIVHSNGNTYLEWYLQKPGQSPKSLIYKVSNRFSGVPDRFSGSGSGTDFTLKISRVEAEDLGVYYCFQGSYVPWTFGGGTKLEIKR: 9.65
- 18H02 (antibody, mouse IgG1, kappa, V domains shown, Murine IgG1/kappa, from hybridoma; also called anti-hErbB3 monoclonal antibody 18H02) VH: QIQLVQSGPELKKPGEAVKISCKSSGYTFTTYGMSWVKQAPGRALKWMGWINTYSGVPTYADDFKGRFAFSLESSASTAYLQINNLKNEDTATYFCARGRDGYQVAWFAYWGQGTLVTVSA VL: ETTVTQSPASLSMAIGDKVTIRCITSTDIDDDMNWFQQKPGEPPKLLISEGNTLRPGVPSRFSGSGYGTDFIFTIENMLSEDVADYYCLQSDNLPYTFGGGTKLEIKR: 9.46
- 22A02 (antibody, mouse IgG1, kappa, V domains shown, Murine IgG1/kappa, from hybridoma; also called anti-hErbB3 monoclonal antibody 22A02) VH: QVQLQQPGAELVRPGTSVKLSCKASGYTFTNYWMHWVKQRPGQGLEWIGMIDPSDSYTNYNPKFKGKATLTVDTSSSTAYMQLSSLTSEDSAVYYCARNYSGDYWGQGTTLTVSS VL: DVLMTQTPLSLPVSLGDQASISCRSSQSIVHSNGNTYLEWYLQKPGQSPKLLIYKVSNRFSGVPDRFSGSGSGTDFTLKISRVEAEDLGVYYCFQGSYVPWTFGGGTKLEIKR: 9.62
